Where do these numbers come from? They come from PubChem BioAssay (NCI).

- Test system: PC-3 prostate
- Measurement notes: NCI-60 one-dose screen, 48 h
- Run parameters: 10 µM
Compounds without any hit were thinned out: in the full panel of roughly 83,000, 20% have a hit. The source made the active and inactive calls. Rule for the calls: active = growth percent below 10; inactive = the rest.
Your answer must be one of the following: Y = active, N = inactive

Worked examples, 6 compounds total:
* CCN(CC)CCNc1ccc(CO)c2sc3ccccc3c(=O)c12 | N
* CC(=O)c1sc2c(c1OC(=O)c1ccc(Cl)cc1Cl)c(=O)n(-c1ccccc1)c(=S)n2-c1ccccc1 | Y
* COc1ccccc1N=Nc1c(O)ccc2cc(S(=O)(=O)O)ccc12 | N
* O=C(OCC(O)C1OC(c2ccccc2)OC(COC(=O)c2ccccc2)C1O)c1ccccc1 (stereo unspecified) | N
* CC(=O)c1ccc(N=C(C#N)C2=C(O)c3ccccc3C2=O)cc1 | N
* Cc1cc(/C=C/c2ccc3cc(N(C)C)ccc3[n+]2C)c(C)n1-c1ccccc1 | Y

We now examine a further compound.
Test call, this compound: CCOC(=O)C(C#N)Cc1ccccc1 (stereo unspecified) N

====

- Tested on: A549/ATCC NSCLC
- Measurement notes: NCI-60 one-dose screen, 48 h (100 = growth as untreated, 0 = no growth, -100 = all killed)
- Run parameters: 10 µM
About 83,000 compounds went through this panel and 20% of them were active in at least one assay; those are over-represented in the sample as a whole.
Measured quantity: growth (%)
Give just the number in %; leave the unit off.

Use the examples below as a reference point.
• O=C(O)CCCCNC(=O)c1ccccc1 = 98.4
• S=c1[nH]ccn1-c1ccccc1Cl = 53.8

Input O=[N+]([O-])c1ccc(Cl)c(S(=O)(=O)O)c1 , output reported growth. 102

Input Nc1ncnc2[nH]ncc12 , output reported growth. 23

Input OCc1cccc2ccccc12 , output reported growth. 108

Input Cc1cc(C)c(N)c(S(=O)(=O)O)c1 , output reported growth. 114

Input CC(C)COC(=O)COC(=O)OCCOCCOC(=O)OCC(=O)OCC(C)C , output reported growth. 109

Input O=P(O)(O)OCC(O)CO (stereo not drawn) , output reported growth. 97.3

Input O=C(NCc1ccco1)Nc1c(Cl)cc(Cl)cc1Cl , output reported growth. 102

====

We begin with a simple list: items and their reported growth.
- System: SNB-75 CNS
- Measurement notes: NCI-60 one-dose screen, 48 h (100 = growth as untreated, 0 = no growth, -100 = all killed)
- Run parameters: 10 µM
The panel holds about 83,000 compounds, 20% with a hit somewhere; the sample as a whole holds those more often.
Give just the number in %; leave the unit off.

* CC(C)=CC(=O)OC(=O)C=C(C)C | 90.3

Input O=S(=O)(Cc1ccccc1)c1ccccc1 , output reported growth. 88.5

Input O=C1N(C[P+](c2ccccc2)(c2ccccc2)c2ccccc2)CCCN1C[P+](c1ccccc1)(c1ccccc1)c1ccccc1 , output reported growth. 88.4

====

- Test system: PC-3 prostate
- Measurement notes: NCI-60 one-dose screen, 48 h (100 = growth as untreated, 0 = no growth, -100 = all killed)
- Run parameters: 10 µM
The panel holds about 83,000 compounds, 20% with a hit somewhere; the sample as a whole holds those more often.
Measured quantity: growth (%)
Give just the number in %; leave the unit off.

Use the examples below as a reference point.
* NC(=S)NN=C1CCCC1 | 89.9
* CC(=O)OCC1OC(OC2=C(CC=C(C)C)C(=O)c3ccccc3C2=O)C(OC(C)=O)C(OC(C)=O)C1OC(C)=O (stereo unspecified) | -6.07
* CC1(O)OC(COc2ccc(Cl)cc2)COC1O (stereo unspecified) | 107
* O=c1c2ccccc2c(Br)c(Br)c2ccccc12 | 95.7

Input CC(=O)Cc1cc(-c2cc(CC(C)=O)[nH]n2)n[nH]1 , output reported growth. 96.7

Input O=C1C=CC2=C3c4cc(O)c(O)cc4CC3(O)COC2=C1O (stereo unspecified) , output reported growth. 93.7

Input COc1cc(OC)c2ccc(=O)oc2c1 , output reported growth. 100

Input C1CNC(C2=NCCN2)=N1 , output reported growth. 98.8

Input CC(=O)OCC(=O)[C@@]1(O)CC[C@H]2[C@@H]3CC[C@@H]4C[C@H](O)CC[C@]4(C)[C@H]3C(=O)C[C@@]21C , output reported growth. 95.5

Input O=C(Nc1cccc(NC(=O)Nc2cc(C(F)(F)F)ccc2Cl)c1)Nc1cc(C(F)(F)F)ccc1Cl , output reported growth. 1.7

Input O=C(/C(=N/O)c1ccccc1)c1ccccc1 , output reported growth. 94.9
